Target: T1, human CCR8 (human, UniProt P51685 1-355)
T1 construct: whole, on cells; construct used for the overexpressing cell lines is not described; also called hCCR8
T1 sequence (P51685 whole entry): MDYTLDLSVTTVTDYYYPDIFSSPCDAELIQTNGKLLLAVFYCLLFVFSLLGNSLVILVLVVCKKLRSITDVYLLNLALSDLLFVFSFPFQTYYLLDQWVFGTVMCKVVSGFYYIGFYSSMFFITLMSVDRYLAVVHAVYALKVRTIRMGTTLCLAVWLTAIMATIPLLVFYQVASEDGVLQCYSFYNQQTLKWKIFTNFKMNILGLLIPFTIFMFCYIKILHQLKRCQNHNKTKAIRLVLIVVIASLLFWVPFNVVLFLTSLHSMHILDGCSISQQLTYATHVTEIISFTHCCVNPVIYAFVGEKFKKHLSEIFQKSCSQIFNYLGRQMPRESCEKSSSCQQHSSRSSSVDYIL
Assay: FACS, Baf3-hCCR8 cells
EC50 strictly under 0.2 nM means t; at 0.2 nM or over means f.

{"binder": "PR004127 (antibody, human IgG1, kappa, V domains shown, chimeric, human IgG1 constant region) VH: EVQLVETGGGLVQPKGSLKLSCAASGFTFNTNAMNWVRQAPGKGLEWVARIRSKSNNYATYYADSVKDRFTISRDDSQNMLYLQMNNLKTEDTAMYYCVRGKENGNYYAMDFWGQGTSVTVSS VL: DIVMTQAATSVLVTPGESVSISCRSSKSLLYSNGNTYLYWFLQRPGQSPQLLIYRMSNLASGVPDRFSGSGSGTAFTLRISRVEAEDVGVYYCMQHLEYPFTFGGGTKLEMKR", "assigned.class": "f"}
{"binder": "PR004120 (antibody, human IgG1, kappa, V domains shown, chimeric, human IgG1 constant region) VH: EVQLVESGGGLVQPKGSLKLSCAASGFTFNTNAMNWVRQAPGKGLEWVARIRSKMNNYATYYADSVKDRFTISRDDSQNMLYLQMNNLKTEDTAMYYCVRGKENGNYYAMDFWGQGTSVTVSA VL: DIVMTQAATSVLVTPGESVSISCRSSKSLLYSNGNTYLYWFLQRPGQSPQLLIYRMSNLASGVPDRFSGSGSGTAFTLRISRVEAEDVGVYYCMQHLEYPFTFGGGTKLEIKR", "assigned.class": "f"}
{"binder": "PR004124 (antibody, human IgG1, kappa, V domains shown, chimeric, human IgG1 constant region) VH: EVKVEESGGGLVQPGGSMKLSCAASGFTFNTYAMNWVRQAPGKGLEWVARIRSKSNNYATYYADSVKDRFTISRDDSQSMLYLQMNNLKTEDTAMYYCVRGKDYGNYYAMDFWGQGTSLTVSS VL: DIVMTQDELSNPVTSGESVSISCRSSKSLLHSNGNTYLYWFLQRPGQSPQLLIYRMSNLASGVPDRFSGSGSGTAFTLRISRVEAEDVGVYYCMQHLEYPFTFGGGTKLELKR", "assigned.class": "t"}
{"binder": "PR004129 (antibody, human IgG1, kappa, V domains shown, chimeric, human IgG1 constant region) VH: EVQLVESGGGLVQPKGSLKLSCAASGFTFNTYAMNWVRQAPGKGLEWVARIRSKSNNYATYYADSVKDRFTISRDDSQSMLYLQMNNLKTEDTAMYYCVRGKDYGNYYAMDYWGQGTSVTVSS VL: DILLTQSPAILSVSPGERVSFSCRSSKSLLHSNGNTYLYWFLQRPGQSPQLLIYRMSNLASGVPDRFSGSGSGTAFTLRISRVEAEDVGVYYCMQHLEYPFTFGSGTKLEINR", "assigned.class": "t"}
{"binder": "PR004121 (antibody, human IgG1, kappa, V domains shown, chimeric, human IgG1 constant region) VH: EVQLVESGGGLVQPKGSLKLSCAASGFTFNTYAMNWVRQAPGKGLEWVARIRSKSNNYATYYADSVKDRFTISRDDSQNMLYLQMNNLKTEDTAMYYCVRGKENGNYYAMDFWGQGTSVTVSS VL: DIVITQAAPSVPVTPGESVSISCRSSKSLLHSNGNTYLYWFLQRPGQSPQLLIYRMSNLASGVPDRFSGSGSGTAFTLRISRVEAEDVGVYYCMQHLEYPFTFGGGTKLEMKR", "assigned.class": "f"}
{"binder": "PR004126 (antibody, human IgG1, kappa, V domains shown, chimeric, human IgG1 constant region) VH: EVQLVESGGGLVQPKGSLKLSCAASGFTFSTNAMNWVRQAPGKGLEWVGRIRSKSNNYATYYADSVKDRFTISRDDSQSMLYLQMNNLKTEDTAMYYCVRGKENGNYYAMDFWGQGTSVTVSA VL: DIVITQAAPSVPVTPGESVSISCRSSKSLLHSNGNTYLYWFLQRPGQSPQLLIYRMSNLASGVPDRFSGSGSGTAFTLRISRVEAEDVGVYYCMQHLEYPFTFGAGTKLELKR", "assigned.class": "t"}
